Target: Streptavidin (Streptomyces avidinii) (UniProt P22629)
Sequence (P22629 whole entry, looked up): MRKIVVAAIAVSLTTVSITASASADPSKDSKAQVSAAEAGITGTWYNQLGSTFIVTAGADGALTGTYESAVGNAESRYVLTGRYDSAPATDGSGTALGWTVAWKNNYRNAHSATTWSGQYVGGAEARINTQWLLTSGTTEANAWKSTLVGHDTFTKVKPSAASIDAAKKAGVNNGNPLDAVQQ
Experiment: streptavidin binders on small-molecule microarray, primary screen, artefact control for SMM compound annotation, biophysical, 635/667 nm fluorescence (AID 1147);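 further: signal reflects streptavidin binding to arrayed compounds as a control protein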
Details: streptavidin binding, higher = more signal
# cutoff 0.3 applies to composite z-score; >= gives Fulfilled, < gives Not fulfilled

Check if composite z-score >= 0.3 (inclusive). Item: O=C1NC(=O)C2C1C=CC(C(O)c1cccc3ccccc13)N2Nc1ccc(Cl)cc1Cl (centres undefined)
Fulfilled

composite z-score >= 0.3 for `COc1ccccc1CN1C(=O)c2ccccc2[C@@]2(Cc3ccccc3N(CC(F)(F)F)C2=O)[C@@H]1c1ccc(CO)cc1` ?
Not fulfilled

Dear colleague, could you confirm whether `O=C1O[C@H](c2ccccc2)[C@H](c2ccccc2)N2[C@H]1[C@@H](C(=O)Nc1nc3ccccc3s1)[C@]1(C(=O)Nc3ccc(C#CCCO)cc31)[C@H]2c1ccc(O)cc1` has composite z-score at or above 0.3?
Fulfilled

Quick check: does CCOc1cc(C(O)C2C=CC3C(=O)N(c4ccccc4)C(=O)C3N2Nc2ccc(C#N)cc2)ccc1O (centres undefined) have composite z-score greater than or equal to 0.3?
Fulfilled

Does the compound `CN(C)C(=O)[C@@]1(CCS(=O)(=O)c2ccccc2)N=C(c2ccc(OCCCO)cc2)O[C@H]1c1ccccc1` have recorded composite z-score that is 0.3 or more?
Fulfilled

Reported composite z-score at or above 0.3? `COc1ccc(CCNC(=O)[C@@H]2c3ccccc3C(=O)N(Cc3cc(C(F)(F)F)cc(C(F)(F)F)c3)[C@H]2c2ccc(CO)cc2)cc1`
Fulfilled

Answer whether composite z-score of `COc1ccc(NC(=O)O[C@H]2[C@H](OC(=O)Nc3ccccc3)[C@@H](OC(=O)Nc3ccccc3)[C@@H](OC)O[C@@H]2CO)cc1` is greater than or equal to 0.3.
Not fulfilled

Could you verify whether the entry `COCCOC(=O)N1C(=O)[C@@]2(c3cc(C#CC4=CCCCC4)ccc31)[C@H](c1ccccc1OCCO)N1[C@H](c3ccccc3)[C@H](c3ccccc3)OC(=O)[C@H]1[C@@H]2C(=O)N1CCCCCCC1` shows composite z-score of no less than 0.3?
Fulfilled

Does composite z-score meet or surpass 0.3 for C=CCC(OC(C)=O)[C@@H]1[C@@H](N(Cc2ccc(-c3cccc(C(F)(F)F)c3)o2)C(=O)c2ccc(C)cc2)c2cc(OCCCO)ccc2N1C(=O)c1ccc2ccccc2c1 (some centres undefined) ?
Not fulfilled

Please indicate if the recorded composite z-score for `O=C(CS)NCCCCCNC(=O)[C@@H]1C[C@@H]2C(=O)N3CCC[C@H]3C(=O)N2[C@@H]1c1cccc(OCCO)c1` meets or exceeds 0.3.
Not fulfilled

In plain terms: is recorded composite z-score at least 0.3 for CCCCN1CC=CC23O[C@@H]4/C=C\CCC(C)OC(=O)C4[C@H]2C(=O)N(C(CO)C(C)C)[C@@H]3C1=O (some centres undefined) ?
Not fulfilled

Given the entry `Cc1ccc(S[C@]2(C(=O)O)CC(=O)N(C3Cc4ccccc4C3)[C@@H]2c2ccc(CO)cc2)cc1` , answer whether its composite z-score meets or surpasses 0.3.
Not fulfilled

hey, is composite z-score for this one >= 0.3? `CC(C)N1C(=O)c2ccccc2[C@@H](C(=O)NC2CC2)[C@@H]1c1ccc(CO)cc1`
Fulfilled

Where these numbers come from: PubChem BioAssay
